Every entry's value here was drawn from patent US12600732B2.

# Experiment: PK data for BTK CTMs (in vivo plasma concentrations)
# Test Conditions: Mouse Balb/c, 10 mg/kg PO
Reported Endpoint: bioavailability (%)
Express your answer in %, writing the number without its unit.

Below, 2 compounds whose answers are already recorded.
[[record]]
compound = "CN1CCN([C@@H]2CCCN(c3cnc(C(N)=O)c(Nc4ccc(C5CCN(C[C@H]6CCN(c7ccc8c(c7)C(=O)N(C7CCC(=O)NC7=O)C8=O)C6)CC5)cc4)n3)C2)C1=O (stereo partly drawn)"
units_symbol = "%"
endpoint_result = 10

[[record]]
compound = "NC(=O)c1ncc(N2CCC[C@@H](N3CCOC3=O)C2)nc1Nc1ccc(C2CCN(C[C@H]3CCN(c4ccc5c(c4)C(=O)N(C4CCC(=O)NC4=O)C5=O)C3)CC2)cc1 (stereo partly drawn)"
units_symbol = "%"
endpoint_result = 47


Okay, next one:
Task: Which bioavailability value belongs to CN1CCN([C@@H]2CCCN(c3cnc(C(N)=O)c(Nc4ccc(C5CN(CC6CCN(c7ccc8c(=O)n(C9CCC(=O)NC9=O)ccc8c7)CC6)C5)cc4)n3)C2)C1=O (stereo partly drawn) ?
Output: 1

* * *

# Test system: primary human T cells
# Experiment: T cell activation assay, CD25 and CD69 staining (flow cytometry)
# Type: cell-based
# Test Conditions: 333 nM; fold-change of response relative to baseline
The entries below are paired with their reported CD25 Staining Anti-CD3/Anti-CD28 Stimulation.
Reply: number alone, nothing else.

[[record]]
molecule = "Nc1cccc2c1CN(C1CCC(=O)NC1=O)C2=O (stereo not drawn) [Lenalidomide, lenalidomide, reference compound]"
endpoint_result = 1.93


Task: Which CD25 Staining Anti-CD3/Anti-CD28 Stimulation value belongs to CN1CCN([C@@H]2CCCN(c3cnc(C(N)=O)c(Nc4ccc5c(c4)CCN(C4CN(c6ccc7c(c6)C(=O)N(C6CCC(=O)NC6=O)C7=O)C4)C5)n3)C2)C1=O (stereo partly drawn) ?
Output: 1.17

Task: Quick one: CN1CCN([C@@H]2CCCN(c3cnc(C(N)=O)c(Nc4ccc(C5CCN(C[C@H]6CC[C@H](Nc7cccc8c7C(=O)N(C7CCC(=O)NC7=O)C8=O)CC6)CC5)cc4)n3)C2)C1=O (stereo partly drawn)
Output: 1.13

* * *

# Test system: TMD8 C481S cells
# Experiment: Cell viability assay (CellTiter-Glo), TMD8 C481S cells
# Test Conditions: TMD8 C481S cells, treatment time 72 h
Assign a class from recorded EMAX (% viable cells); defined classes: bucket 1 (below 20%), bucket 2 (20% to below 40%), bucket 3 (40% or more)

Recorded results for 8 compounds are shown here.
[[record]]
compound = "CN1CCN([C@@H]2CCCN(c3cnc(C(N)=O)c(Nc4cnn(C5CN(CC6CCN(c7ccc8c(c7)C(=O)N([C@@H]7CCC(=O)NC7=O)C8=O)CC6)C5)c4)n3)C2)C1=O"
class = "bucket 3"

[[record]]
compound = "NC(=O)c1ncc(-c2nccs2)nc1Nc1ccc(C2CCN(C[C@@H]3CCN(c4ccc5c(c4)C(=O)N(C4CCC(=O)NC4=O)C5=O)C3)CC2)cc1 (stereo partly drawn)"
class = "bucket 1"

[[record]]
compound = "CN1CCN([C@H]2CCCN(c3cnc(C(N)=O)c(Nc4cnn(C5CCN(CC6CCN(c7ccc8c(c7)C(=O)N(C7CCC(=O)NC7=O)C8=O)CC6)CC5)c4)n3)C2)C1=O (stereo partly drawn)"
class = "bucket 3"

[[record]]
compound = "CN1CCN([C@@H]2CCCN(c3cnc(C(N)=O)c(Nc4ccc(C5CCN(C[C@H]6CCN(c7ccc8c(=O)n(C9CCC(=O)NC9=O)ccc8c7)C6)CC5)cc4)n3)C2)C1=O (stereo partly drawn)"
class = "bucket 1"

[[record]]
compound = "CN1CCN([C@H]2CCCN(c3cnc(C(N)=O)c(Nc4cnn(C5CCN(CC6CN(c7ccc8c(c7)C(=O)N(C7CCC(=O)NC7=O)C8=O)C6)CC5)c4)n3)C2)C1=O (stereo partly drawn)"
class = "bucket 2"

[[record]]
compound = "CN1CCN([C@@H]2CCCN(c3cnc(C(N)=O)c(Nc4ccc(N5CCN(CC6CN(c7ccc8c(c7)C(=O)N(C7CCC(=O)NC7=O)C8=O)C6)CC5)cc4)n3)C2)C1=O (stereo partly drawn)"
class = "bucket 2"

[[record]]
compound = "Cn1cc(Nc2nc(N3CCC[C@@H](N4CC5(CN(C6CCN(c7ccc8c(c7)C(=O)N([C@H]7CCC(=O)NC7=O)C8=O)CC6)C5)OC4=O)C3)cnc2C(N)=O)cn1"
class = "bucket 3"

[[record]]
compound = "CN1CCN([C@@H]2CCCN(c3cnc(C(N)=O)c(Nc4ccc(C5CCN(CC6CCN(c7ccc8c(c7)C(=O)N(C7CCC(=O)NC7=O)C8=O)CC6)CC5)cc4)n3)C2)C1=O (stereo partly drawn)"
class = "bucket 3"


Task: Which EMAX (% viable cells) category applies to CN1CCN([C@H]2CCCN(c3cnc(C(N)=O)c(Nc4ccc(C5CCN(CC6CCN(c7ccc(C(=O)NC8CCC(=O)NC8=O)nc7)CC6)CC5)cc4)n3)C2)C1=O (stereo partly drawn) here?
Output: bucket 2

Task: Quick one: CN1CCN([C@@H]2CCCN(c3cnc(C(N)=O)c(Nc4ccc(C5CCN(C6CN(Cc7ccc8c(c7)CN(C7CCC(=O)NC7=O)C8=O)C6)CC5)cc4)n3)C2)C1=O (stereo partly drawn)
Output: bucket 2

Task: Quick one: CN1CCN([C@@H]2CCCN(c3cnc(C(N)=O)c(Nc4ccc(C5CCN(c6ccc7c(c6)C(=O)N(C6CCC(=O)NC6=O)C7=O)CC5)cc4)n3)C2)C1=O (stereo partly drawn)
Output: bucket 3

Task: Quick one: CN1CCN([C@@H]2CCCN(c3cnc(C(N)=O)c(Nc4ccc(C5CCN(CC6CCN(c7ccc(-c8nn(C9CCC(=O)NC9=O)c(=O)n8C)cc7)CC6)CC5)cc4)n3)C2)C1=O (stereo partly drawn)
Output: bucket 2

Task: Quick one: CN1CCN([C@H]2CCCN(c3cnc(C(N)=O)c(Nc4ccc(N5CCC6(CCN(c7ccc8c(c7)C(=O)N(C7CCC(=O)NC7=O)C8=O)CC6)CC5)nc4)n3)C2)C1=O (stereo partly drawn)
Output: bucket 3

Task: Quick one: CN1CCN([C@@H]2CCCN(c3cnc(C(N)=O)c(Nc4ccc(C5CCN(C[C@H]6CCN(c7ccc8c(c7)C(=O)N([C@@H]7CCC(=O)NC7=O)C8=O)C6)CC5)nc4)n3)C2)C1=O
Output: bucket 3

Task: Quick one: CN1CCN([C@@H]2CCCN(c3cnc(C(N)=O)c(Nc4ccc(C5CCN(C[C@H]6CCN(c7ccc8c(c7)C(=O)N(C7CCC(=O)NC7=O)C8=O)C6)CC5)cc4)n3)C2)C1=O (stereo partly drawn)
Output: bucket 2

Task: Quick one: CN1CCN([C@@H]2CCCN(c3cnc(C(N)=O)c(Nc4ccc(C5CN(C6CCN(c7ccc8c(c7)C(=O)N(C7CCC(=O)NC7=O)C8=O)CC6)C5)cc4)n3)C2)C1=O (stereo partly drawn)
Output: bucket 1

Task: Quick one: NC(=O)c1ncc(N2CCCCC2)nc1Nc1ccc(C2CCN(CC3CCN(c4ccc5c(=O)n(C6CCC(=O)NC6=O)ccc5c4)CC3)CC2)cc1 (stereo not drawn)
Output: bucket 1

Task: Quick one: CN1CCN([C@H]2CCCN(c3cnc(C(N)=O)c(Nc4ccc(C5CCN(CC6CCN(c7ccc(NC8CCC(=O)NC8=O)cn7)CC6)CC5)cc4)n3)C2)C1=O (stereo partly drawn)
Output: bucket 1

Task: Quick one: CN1CCN([C@@H]2CCCN(c3cnc(C(N)=O)c(Nc4ccc(C5CCN(C6CN(c7ccc8c(c7)C(=O)N(C7CCC(=O)NC7=O)C8=O)C6)CC5)cc4)n3)C2)C1=O (stereo partly drawn)
Output: bucket 2

Task: Quick one: NC(=O)c1ncc(N2CCCCC2)nc1Nc1ccc(C2CCN(C[C@@H]3CCN(c4ccc5c(c4)C(=O)N(C4CCC(=O)NC4=O)C5=O)C3)CC2)cc1 (stereo partly drawn)
Output: bucket 1

Task: Quick one: Cn1cc(Nc2nc(N3CCC[C@@H](N4CC5(CN(CC6CCN(c7ccc8c(c7)C(=O)N(C7CCC(=O)NC7=O)C8=O)CC6)C5)OC4=O)C3)cnc2C(N)=O)cn1 (stereo partly drawn)
Output: bucket 2
